Target: mitochondrial Complex II/III (Bos taurus, UniProt P00125+P00157+P13272)
Test: Mito Check Complex Activity Assay Kit, complex II/III
Conditions: mitochondrial electron transport chain
Protocol: Dulbecco’s Modified Eagle’s medium (DMEM), WST-8 colorimetric reagent, and KCN were purchased from Nacalai Tesque, Inc. (Kyoto, Japan). […] Mito Check Complex Activity Assay Kit (Cayman Chemical, Ann Arbor, MI, USA) was used to evaluate the effect of compound 1 on the mitochondrial complex I–V. Oxygen consumption of cells was measured by Oxygen Consumption Rate (OCR) Assay Kit (Cayman Chemical, Ann Arbor, MI, USA). […]
pIC50: −log10 of the molar value.
valueKind: pIC50

pIC50 reading for COc1ccc(C2SSC34CC5(O)C(Cl)C=CC(O)C5ON3C(=O)C2NC4=O)c(O)c1OC (stereo not shown) [Compound 1, DC1149B] : < 4.52
